Tested on: BT-549
Test: normalised viability (% of control), CellTiter-Blue; higher = more viable cells (about 100 = DMSO control)
Conditions: 10 nM; incubation time: 72 h
result.type: normalised viability (%)

INSERT INTO assay_data (molecule, numeric_result) VALUES
  ('O=C(O)CCCc1ccc(N(CCCl)CCCl)cc1', 80.9),
  ('CN(C)CCN1C(=O)c2cccc3cc(N)cc(c23)C1=O [Amonafide]', 84.9),
  ('CC(C)(C#N)c1cc(Cn2cncn2)cc(C(C)(C)C#N)c1', 94),
  ('CC[C@]1(O)C[C@H]2CN(CCc3c([nH]c4ccccc34)[C@@](C(=O)OC)(c3cc4c(cc3OC)N(C=O)[C@H]3[C@@](O)(C(=O)OC)[C@H](OC(C)=O)[C@]5(CC)C=CCN6CC[C@]43[C@@H]65)C2)C1', 43.7);

----------
Tested on: CAL-148
Test: drug sensitivity score (DSS), CellTox Green (DSS (AUC-based score)); higher = stronger drug effect (viability inhibition or cytotoxicity); extreme values may be limits of the assay
Conditions: incubation time: 72 h
# drug sensitivity score values compiled below
result.type: drug sensitivity score

INSERT INTO assay_data (molecule, numeric_result) VALUES
  ('Nc1ncnc2c1c(COc1cccc(Cl)c1)nn2C1CCOCC1', 0),
  ('CCCCCCCCc1ccc(CCC(N)(CO)CO)cc1', 0),
  ('CNNCc1ccc(C(=O)NC(C)C)cc1', 0),
  ('C/C(=C\c1csc(C)n1)[C@@H]1C[C@@H]2O[C@]2(C)CCC[C@H](C)[C@H](O)[C@@H](C)C(=O)C(C)(C)[C@@H](O)CC(=O)O1', 8.8),
  ('O=C1NC(=O)[C@@H](c2cn3c4c(cccc24)CCC3)[C@@H]1c1c[nH]c2ccccc12 [Tivantinib]', 7.13),
  ('CN(C)C[C@@H]1CCn2cc(c3ccccc32)C2=C(C(=O)NC2=O)c2cn(c3ccccc23)CCO1', 10.6),
  ('CC(C)c1c(C(=O)Nc2ccccc2)c(-c2ccccc2)c(-c2ccc(F)cc2)n1CC[C@@H](O)C[C@@H](O)CC(=O)O', 0);

----------
Test system: CAL-120
Assay: normalised response (% of control), CellTiter-Glo; higher = more viable cells (100 = DMSO, 0 = benzethonium chloride kill control)
Conditions: incubation time: 72 h
Reported values of normalised response for individual entries
result.type: normalised response (%)

INSERT INTO assay_data (compound, result_type, uom, numeric_result) VALUES
  ('Cn1cncc1[C@@](N)(c1ccc(Cl)cc1)c1ccc2c(c1)c(-c1cccc(Cl)c1)cc(=O)n2C [Tipifarnib] (10000 nM)', 'normalised response', '%', 63.4),
  ('O=C(O)CCCc1ccc(N(CCCl)CCCl)cc1 [Chlorambucil] (10000 nM)', 'normalised response', '%', 100),
  ('Nc1ncnc2c1c(COc1cccc(Cl)c1)nn2C1CCOCC1 (10000 nM)', 'normalised response', '%', 107),
  ('CC(C)c1c(C(=O)Nc2ccccc2)c(-c2ccccc2)c(-c2ccc(F)cc2)n1CC[C@@H](O)C[C@@H](O)CC(=O)O [Atorvastatin] (10000 nM)', 'normalised response', '%', 47.4),
  ('CN(C)CCN1C(=O)c2cccc3cc(N)cc(c23)C1=O [Amonafide] (10000 nM)', 'normalised response', '%', 52.3);

Source of measurements: the supplement of paper PMC4862054
